Measured On: butyrylcholinesterase (BChE) (Equus caballus, UniProt P81908)
Construct: butyrylcholinesterase (BChE, E.C. from equine serum); purchased Sigma Aldrich (St. Louis, MO, USA); host or cells: equine serum
Sequence (P81908 whole entry): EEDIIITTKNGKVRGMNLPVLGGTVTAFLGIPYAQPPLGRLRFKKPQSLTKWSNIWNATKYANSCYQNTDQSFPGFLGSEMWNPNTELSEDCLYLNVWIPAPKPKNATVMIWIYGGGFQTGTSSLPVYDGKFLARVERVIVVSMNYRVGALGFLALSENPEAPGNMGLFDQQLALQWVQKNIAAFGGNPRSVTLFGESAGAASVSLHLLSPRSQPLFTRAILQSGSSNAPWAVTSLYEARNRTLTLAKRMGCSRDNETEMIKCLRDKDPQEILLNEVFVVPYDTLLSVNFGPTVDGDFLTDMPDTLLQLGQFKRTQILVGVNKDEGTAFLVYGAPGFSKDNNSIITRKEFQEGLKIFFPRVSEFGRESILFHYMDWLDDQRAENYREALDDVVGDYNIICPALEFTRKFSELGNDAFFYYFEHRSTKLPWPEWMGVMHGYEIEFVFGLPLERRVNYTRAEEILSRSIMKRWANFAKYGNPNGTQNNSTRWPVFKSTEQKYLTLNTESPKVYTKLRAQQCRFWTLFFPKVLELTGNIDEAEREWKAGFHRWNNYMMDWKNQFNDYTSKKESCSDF
Experimental Protocol: biochemical
Set-up: species or system equine
Measurement Parameters: read-out: BChE Inhibition (%)
Where inhibition at 100 µM equals or exceeds 80%, the correct label is T; where it does not, the label is F.

{"Smi": "COc1ccc(OC(=O)N(C)C)c(/C=C/c2cccs2)c1", "Measured On": "butyrylcholinesterase (BChE) (Equus caballus, UniProt P81908)", "Classification": "T"}
{"Smi": "CN(C)C(=O)Oc1ccc(F)cc1/C=C/c1cccs1", "Measured On": "butyrylcholinesterase (BChE) (Equus caballus, UniProt P81908)", "Classification": "T"}
{"Smi": "Cc1ccc(/C=C/c2cc(Cl)ccc2OC(=O)N(C)C)s1", "Measured On": "butyrylcholinesterase (BChE) (Equus caballus, UniProt P81908)", "Classification": "T"}
{"Smi": "CN(C)C(=O)Oc1cccc(/C=C/c2cccs2)c1", "Measured On": "butyrylcholinesterase (BChE) (Equus caballus, UniProt P81908)", "Classification": "T"}
{"Smi": "Cc1ccc(OC(=O)N(C)C)c(/C=C/c2ccc(C)s2)c1", "Measured On": "butyrylcholinesterase (BChE) (Equus caballus, UniProt P81908)", "Classification": "F"}
{"Smi": "Cc1ccc(/C=C/c2cc(F)ccc2OC(=O)N(C)C)s1", "Measured On": "butyrylcholinesterase (BChE) (Equus caballus, UniProt P81908)", "Classification": "T"}
